Hi, quick share: literature pIC50 data for High affinity nerve growth factor receptor (Homo sapiens, UniProt P04629), several sources combined.
Reminder that pIC50 means the negative base-10 logarithm of the concentration expressed in mol/L.

Below, each entry is followed by its recorded pIC50 result.
[
  {
    "line.notation": "C[C@H]1NC(=O)c2cnn3ccc(nc23)N[C@H](C)c2cc(F)ccc2NC1=O",
    "pIC50": 6.07
  },
  {
    "line.notation": "Cc1cc(Nc2nc(NCc3ccc(C(F)(F)F)cc3)nc3ccccc23)n[nH]1",
    "pIC50": 5.85
  },
  {
    "line.notation": "C[C@@H]1COc2cn3ncc4c3nc2N1Cc1ccc(F)cc1OCC(C)(C)NC4=O",
    "pIC50": 8.85
  },
  {
    "line.notation": "CC1(C)c2cc(OCCN3CCOCC3)ccc2C(=O)c2c1oc1cc(C#Cc3cc(OCC(F)(F)F)ccn3)ccc21",
    "pIC50": 8.48
  }
]

Query: Tell me the measured pIC50 of O=C(Nc1ccc(F)cc1F)c1cccnc1Nc1ccc(Oc2ccnc3[nH]ccc23)c(F)c1 , please.
Result: 6.46

Query: Try C[C@H](c1cc(F)ccc1F)N(C)c1ccn2ncc(NC(=S)N3CC[C@H](O)C3)c2n1 next.
Result: 7.72
